# experimental details: In vivo drug metabolism (pharmacokinetics) in mice, iv and po
# Design: species or system C57 male mice
# recorded conditions: male, mouse; iv 1 mg/kg, C57 mice, plasma
Field: C0. Provide a value for each of the compounds that follow.
Return type: number; implicit unit ng/mL.

# lookup: C0 of O=c1ccc2cnc3ccc(-c4ccc(F)nc4)cc3c2n1-c1cccc(C(F)(F)F)c1 [HTL-7-01]
574

Follow-up item: CCC(=O)Nc1ccc(-c2ccc3ncc4ccc(=O)n(-c5cccc(C(F)(F)F)c5)c4c3c2)cn1 [HTL-6-45]
398

Again, but for CN1CCN(c2ccc(-c3ccc4ncc5ccc(=O)n(-c6cccc(C(F)(F)F)c6)c5c4c3)cn2)CC1 [HTL-7-17]
364

Would you kindly repeat that for O=c1ccc2cnc3ccc(-c4cccnc4F)cc3c2n1-c1cccc(C(F)(F)F)c1 [HTL-6-48] ?
651

Same read-out for COc1ccc(-c2ccc3ncc4ccc(=O)n(-c5cccc(C(F)(F)F)c5)c4c3c2)cn1 [HTL-7-03] ?
596

---

# experimental details: In vivo drug metabolism (pharmacokinetics) in mice, iv and po
# Set-up: species or system C57 male mice
# recorded conditions: male, mouse, plasma; po 10 mg/kg, C57 mice; read-out: T1/2 po (converted)
Field: half-life. Provide a value for each of the molecules that follow.
Form entry: enter the amount, then its unit.

// half-life lookup, key: CCC(=O)Nc1ccc(-c2ccc3ncc4ccc(=O)n(-c5cccc(C(F)(F)F)c5)c4c3c2)cn1 [HTL-6-45]
0.84 h

Let us now turn to COc1ccc(-c2ccc3ncc4ccc(=O)n(-c5cccc(C(F)(F)F)c5)c4c3c2)cn1 [HTL-7-03]
1.24 h

Same read-out for O=c1ccc2cnc3ccc(-c4cccnc4F)cc3c2n1-c1cccc(C(F)(F)F)c1 [HTL-6-48] ?
0.99 h

Try this molecule too: O=c1ccc2cnc3ccc(-c4ccc(F)nc4)cc3c2n1-c1cccc(C(F)(F)F)c1 [HTL-7-01]
2.01 h

Then this molecule: CN1CCN(c2ccc(-c3ccc4ncc5ccc(=O)n(-c6cccc(C(F)(F)F)c6)c5c4c3)cn2)CC1 [HTL-7-17]
1.58 h

---

# Test system: RD cells
# experimental details: Detection of cytotoxicity in RD cells (CellTiter-Glo)
# Format: cell-based
# recorded conditions: 4 days, CellTiter-Glo, median toxic dose
Provide the recorded TD50 for the entries that follow.
Record the value in µM, omitting the unit from your answer.

Bench note: what TD50 did `O=C(Cc1ccccc1)Nc1ccc(-c2ccc3ncc4ccc(=O)n(-c5cccc(C(F)(F)F)c5)c4c3c2)cn1` show?
0.74

Cool, now `CC(=O)/C=C/c1cnc2ccc(-c3ccc(F)c(C)c3)cc2c1Nc1cccc(C(F)(F)F)c1`
1.52

Okay, and `Cc1ncccc1-c1ccc2ncc3ccc(=O)n(-c4cccc(C(F)(F)F)c4)c3c2c1` ?
0.07

Also `CCOC(=O)CC/C=C/c1ccc2ncc3oc(=O)n(-c4cccc(C(F)(F)F)c4)c3c2c1` , if possible.
22.74

---

# experimental details: In vivo drug metabolism (pharmacokinetics) in mice, iv and po
# Parameters: species or system C57 male mice
# recorded conditions: male, mouse, plasma; iv 1 mg/kg, C57 mice; read-out: T1/2 iv (converted)
quantity kind: half-life (min)
Field format: number, assumed min, no unit text.

So what's the measured half-life for this one? CCC(=O)Nc1ccc(-c2ccc3ncc4ccc(=O)n(-c5cccc(C(F)(F)F)c5)c4c3c2)cn1 [HTL-6-45]
19.4

Same read-out for O=c1ccc2cnc3ccc(-c4ccc(F)nc4)cc3c2n1-c1cccc(C(F)(F)F)c1 [HTL-7-01] ?
63

// query: CN1CCN(c2ccc(-c3ccc4ncc5ccc(=O)n(-c6cccc(C(F)(F)F)c6)c5c4c3)cn2)CC1 [HTL-7-17]
43.1

Record: O=c1ccc2cnc3ccc(-c4cccnc4F)cc3c2n1-c1cccc(C(F)(F)F)c1 [HTL-6-48]
50.4

Also check COc1ccc(-c2ccc3ncc4ccc(=O)n(-c5cccc(C(F)(F)F)c5)c4c3c2)cn1 [HTL-7-03]
110
